Source of measurements: patent US20160185837A1

- measuredOn: human GLP-1 receptor (human, UniProt P43220 24-463)
- measurementNotes: cell-based or functional assay
Measured cAMP EC50, Batch 2 accompanies every entry in the list below.
quantityMeasured: cAMP EC50, Batch 2 (pM)

IP325 (Fc fusion) YSEGTFTSDYSKLLEEEAVRLFIEWLVKGPGGGGGSGGGGSGGGGSGGGGSGGGGSGGGGSGGGGSGGGGSA = 160
IP328 (Fc fusion) YSEGTFTSDYSKLLEEEAVRLFIEWLLAGGGGGGGSGGGGSGGGGSGGGGSGGGGSGGGGSGGGGSGGGGSA = 330
IP280 (Fc fusion) YSEGTFTSDYSKLLEEEAVRLFIEWLVKGGPSSGAPPPSGGGGGSGGGGSGGGGSGGGGSATHTCPPC = 58
IP295 (Fc fusion) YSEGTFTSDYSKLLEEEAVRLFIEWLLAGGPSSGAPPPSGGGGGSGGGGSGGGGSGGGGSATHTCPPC = 140
IP243 (Fc fusion) YSEGTFTSDYSKLLEEEAQRLFIEWLVKGPAAAGGSGSTASSGSGSATGGGGAATHTCPPCPAPEF = 210
IP292 (Fc fusion) YSEGTFTSDYSKLLEEEAVRCFIEWLVKGGPGGGAPPCGGGGGGGGGGGGGGGGGGGACPPC = 1100
IP024 (Fc fusion) YSEGTFTSDYSKLLEEEAVRLFIEWLLAGAAAGGSGSTASSGSGSATGGGGAATHTCPPCPAPEF = 160
IP149 (Fc fusion) YSQGTFTSDYSKLLEEEAVRLFIEWLVKGPAPPGGSGSTASSGSGSATGGGGAATHTCPPCPAPEF = 120
IP274 (Fc fusion) YSEGTFTSDYSKLLEKEAVRLFIEWLLKGPGGGGGSGGGGSGGGGSGGGGSATHTCPPC = 200
IP324 (Fc fusion) YSEGTFTSDYSKLLEEEAVRLFIEWLVKGPGGGGGSGGGGSGGGGSGGGGSGGGGSGGGGSGGGGSA = 140
